- study_target: GABA-A receptor; alpha-3/beta-3/gamma-2 (Homo sapiens, UniProt P18507+P28472+P34903)
- Sequence (P18507 whole entry): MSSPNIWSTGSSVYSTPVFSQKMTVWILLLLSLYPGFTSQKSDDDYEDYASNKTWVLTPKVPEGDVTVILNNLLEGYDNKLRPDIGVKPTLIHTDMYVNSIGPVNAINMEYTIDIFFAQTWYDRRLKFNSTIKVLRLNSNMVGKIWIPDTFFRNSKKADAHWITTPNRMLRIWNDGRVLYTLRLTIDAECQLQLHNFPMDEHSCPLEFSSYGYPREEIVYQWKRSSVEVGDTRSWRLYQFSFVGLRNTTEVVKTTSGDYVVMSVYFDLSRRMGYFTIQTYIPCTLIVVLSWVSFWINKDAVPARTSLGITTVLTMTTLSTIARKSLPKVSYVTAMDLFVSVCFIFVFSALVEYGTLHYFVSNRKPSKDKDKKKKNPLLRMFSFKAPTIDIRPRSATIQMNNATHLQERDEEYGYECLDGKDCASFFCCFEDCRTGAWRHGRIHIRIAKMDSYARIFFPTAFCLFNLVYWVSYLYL
- Sequence (P28472 whole entry): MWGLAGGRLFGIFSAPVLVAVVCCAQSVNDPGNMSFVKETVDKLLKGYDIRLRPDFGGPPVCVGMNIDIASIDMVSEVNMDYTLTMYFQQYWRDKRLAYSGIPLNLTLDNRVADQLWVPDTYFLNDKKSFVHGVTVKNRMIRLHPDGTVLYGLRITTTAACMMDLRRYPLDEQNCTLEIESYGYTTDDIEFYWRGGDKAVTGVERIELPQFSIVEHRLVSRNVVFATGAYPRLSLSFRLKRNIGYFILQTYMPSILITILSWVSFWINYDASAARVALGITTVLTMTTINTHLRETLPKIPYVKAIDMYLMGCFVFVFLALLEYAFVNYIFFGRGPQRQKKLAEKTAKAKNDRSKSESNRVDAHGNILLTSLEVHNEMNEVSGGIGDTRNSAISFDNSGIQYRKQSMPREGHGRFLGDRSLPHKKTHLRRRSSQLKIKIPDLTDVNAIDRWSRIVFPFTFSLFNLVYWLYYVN
- Sequence (P34903 whole entry): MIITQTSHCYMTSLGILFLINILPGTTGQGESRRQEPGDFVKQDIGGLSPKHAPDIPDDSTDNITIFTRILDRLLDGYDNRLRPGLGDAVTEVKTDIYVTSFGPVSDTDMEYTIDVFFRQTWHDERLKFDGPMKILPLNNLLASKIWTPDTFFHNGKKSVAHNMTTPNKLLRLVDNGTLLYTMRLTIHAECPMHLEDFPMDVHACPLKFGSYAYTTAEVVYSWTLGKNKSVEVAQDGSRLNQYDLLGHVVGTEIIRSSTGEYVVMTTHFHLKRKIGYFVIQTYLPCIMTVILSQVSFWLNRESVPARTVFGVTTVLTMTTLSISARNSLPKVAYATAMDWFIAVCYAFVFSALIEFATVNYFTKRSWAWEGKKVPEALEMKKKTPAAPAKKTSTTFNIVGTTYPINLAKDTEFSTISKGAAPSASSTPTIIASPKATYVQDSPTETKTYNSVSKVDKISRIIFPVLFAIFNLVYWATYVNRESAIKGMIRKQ
- experiment_summary: Displacement of [3H]-Ro- 15-1788 from human GABA-A alpha-3-beta-3-gamma-2 receptor subunits expressed in Xenopus oocytes
Reported pKi values are given for each entry in this list.
In textbook form, pKi equals minus log to base ten of the concentration in mol/L.

CCc1c(C(=O)OC)ncc2[nH]c3cc(OC)c(OC)cc3c12 | 8.00
Cc1cc(-c2nnc3c4ccccc4c(OCc4ccccn4)nn23)no1 | 9.02
Cc1cc(-c2nnc3c4ccccc4c(OCc4cnn(C)n4)nn23)no1 | 9.10
Cc1cc(-c2nnc3c4ccccc4c(OCc4cnnn4C)nn23)no1 | 8.28
Cc1cccc(COc2nn3c(-c4ccoc4)nnc3c3c2C2CCC3CC2)n1 | 7.40

Next compound, pKi to be filled in.
Fill in: pKi of `Cc1cccc(COc2nn3c(-c4ccccc4)nnc3c3c2C2CCC3CC2)n1` is ___
7.60
